In what follows, each item is paired with its pKi for Carbonic anhydrase 12 (Homo sapiens).
The value called pKi is obtained by taking minus log10 of the concentration in mol/L.

COC(=O)c1ccc(O)cc1O [METHYL 2,4-DIHYDROXYBENZOATE]
6.02

# query: pKi of entry COC(=O)/C=C/c1ccc(O)cc1 [METHYL P-HYDROXYCINNAMATE]
6.09

Which pKi is reported for this compound? CC(C)OC(=O)/C=C/c1ccc(O)cc1 [ISOPROPYL 3-(4-HYDROXYPHENYL)ACRYLATE]
6.12

Requested read-out: pKi. Entry: Nc1cccc(O)c1
5.11

Query: pKi; subject: O=C(O)c1ccc(O)cc1O [2,4-DIHYDROXYBENZOIC ACID]
5.12

Which pKi reading was recorded for the compound CCOC(=O)c1ccc(O)cc1 ?
5.07
